target.or.system: T1, CW peptides (KRRHPKKC) ( (human or mouse cDNA cloned))
T1 construct: Cardin-Weintraub (CW) motif of Shh, residues 33 to 39 in ShhN; C-terminal cysteine printed after the KRRHPKK motif; In the pull-downs the peptide was covalently linked to thiopyridone Sepharose 6B; also called peptides corresponding to the CW motif; source: synthetic peptide
T1 peptide: KRRHPKKC
assay.details: ITC; isothermal titration calorimetry of CW peptides with GST-SURF4^49-60 or GST
reported.conditions: both partners purified
measured.parameter: Kd
Kindly format the answer as number then unit.

Ask | Please list Kd recorded for the binder SEQRDYIDTTWN (domain or fragment, human, UniProt O15260 49-60, looked up, first luminal loop of SURF4, amino acids 49 to 60; also called GST-tagged SURF4^49-60; source: E. coli, purified) [GST-SURF4^49-60]
Reply | 2.35 µM
